- Test system: SF-539
- Experimental Details: NCI tumour cell line growth inhibition, 48 h
The source made the active and inactive calls. Cut-off read from the data, not from the text of the source: active = GI50 up to about 1.1 µM and inactive = higher.
Metric Name: GI50

Recorded result, CSc1c(C#N)c(N)n(-c2ccc(Cl)cc2)c(=O)c1C#N , GI50: > 100 µM (inactive)

Entry CC1(C)CS(=O)(=O)CC(C)(C)C(=N/N)/C1=N\N , GI50 reported as > 100 µM (inactive)

Measured GI50, COc1ccc(Cn2c(=O)c(OS(=O)(=O)C(F)(F)F)c(C)c3cc4ccccc4cc32)cc1 : > 100 µM (inactive)

# GI50 of COC(=O)Nc1nc2cc(S(=O)(=O)N3CCOCC3)ccc2[nH]1 = 12.4 µM (inactive)

// recorded GI50 for NC1=NCC(CN2CCOCC2)O1 (stereo unspecified) : > 100 µM (inactive)

Reported GI50 ( O=C(O)CCC(C(=O)O)N1C(=O)C2C3CCC(C3)C2C1=O (stereo unspecified) ) = > 100 µM (inactive)

Measured GI50 of N#Cc1cccc(N2C(=O)c3ccc(C(=O)c4ccc5c(c4)C(=O)N(c4cccc(C#N)c4)C5=O)cc3C2=O)c1 : > 100 µM (inactive)

Data point: COc1ccc([C@H]2C=C(c3cc(F)c(Cl)cc3Cl)NC(=S)N2)cc1 ; GI50 = 42.4 µM (inactive)

The recorded GI50 for entry Cc1ccc(/C=C2\CCCc3ccccc3C2=O)cc1 equals 13.8 µM (inactive)

The reported GI50 of the molecule OC(c1cc(C(F)(F)F)nc2c(Cl)cc(Cl)cc12)C1CCCCN1 (stereo unspecified) was 14 µM (inactive)

Sample COc1ccc2c(c1)[n+]([O-])c(-c1ccccc1)c(N)[n+]2[O-] ; GI50 observed: 32.4 µM (inactive)

----------
- System: ACHN
- Experimental Details: NCI tumour cell line growth inhibition, 48 h
Calls of active or inactive are those of the source. Rule as the data show it: active = GI50 up to about 1.1 µM and inactive = higher.
# output must be one of active, inactive

Field: outcome | Entry: CC12CC[C@H](O)C(C)(C)[C@H]1CC[C@](C)(O)C2COc1ccc2ccc(=O)oc2c1 (some centres undefined)
inactive

Which outcome was entered for the molecule O=C(c1ccccc1)c1ccc2nc3n(c2c1)C(c1c(Cl)cccc1Cl)SC3 (centres undefined) in this test?
inactive

Identify the outcome logged in this assay for the molecule shown: CCOC(=O)CCSc1nc2ccc(I)cc2c(=O)n1Cc1ccccc1
inactive

Short answer needed: outcome of this test for CCCCCCCC(=O)N1C2CC3CCC2(CS1(=O)=O)C3(C)C (centres undefined) ?
inactive

Per the assay record, what outcome was assigned to NC(=O)CO/N=C1/C(=C2/C(=O)Nc3ccccc32)Nc2ccccc21 ?
inactive

Query: recorded result category for CC(C)CC(Nc1c(O)ccc2ccccc12)C(=O)O (centres undefined) in this test
inactive

Tell me the recorded outcome of this test for C=C(Br)C(C)(Br)CCC(Br)C(C)(C)Cl (centres undefined) .
inactive

Give the logged outcome of this assay for the following molecule: O=C(O)CCSC(=O)Nc1ccccc1Cl
inactive

# lookup: test call for O=NN1CCN=C1c1ccc([N+](=O)[O-])cc1
inactive

Test call, this molecule: CC1(C)[C@@H]2CC[C@]1(C)[C@H](OC(=O)/C=C/c1ccccc1)C2
inactive

GET /call?item= C/C(CC(=O)Nc1ccc(NC(=O)C/C(C)=N\NC(N)=O)cc1)=N/NC(N)=O returns the recorded outcome of this test.
inactive

Which outcome was assigned to CC(C)N(CC(=O)O)CC(=O)O in this test?
inactive

State the result this test recorded for COc1cccc(Cc2c3cc(OC)ccc3cc[n+]2C)c1 .
inactive

For OCC1OC(NO)C(O)C(O)C1O (centres undefined) , which call appears in the assay record?
inactive

// outcome(item) with item = Clc1sc(Cl)c2c1[C@@H](Cl)C[C@@H]2Br
inactive

How did this test come out for CCC(=O)OCOc1ccc(/C=C2\CCC(CN(C)C)C2=O)cc1 (centres undefined) ?
inactive

Hello, I am checking results. What call was entered for Oc1ccc(-c2nc3cc(C(F)(F)F)ccc3s2)cc1 ?
inactive

Fill in: this test's call for COC1C(O)=C2C(=O)O/C(C)=C/C=C/C=C/C=C\CC(c3ccccc3)NC(=O)\C=C/C=C\C=C\C=C\[C@@]2(C)[C@@H]1O (some centres undefined) is ___
active

Dear colleague, could you share the recorded outcome for CC1OC(n2cc(I)c(=O)[nH]c2=O)C=CC1=O (centres undefined) when you have a moment?
inactive

// return assay outcome for NC1CC(=O)c2cc(Br)sc21 (centres undefined)
inactive

Assay outcome for CCc1c(N=[N+]=[N-])c2ccccc2oc1=O : what was it?
inactive

Record request — test call for Nc1cc2c3c(cccc3c1)C(=O)N(c1ccc(OCCN3CCCC3)cc1)C2=O
inactive

Record lookup: outcome of this test for Cc1ccc(NC(=O)CC2SC(Nc3ccc(Cl)cc3)=NC2=O)cc1C (centres undefined) ?
inactive

Which result was noted for this molecule in the test: CCNC(=O)c1c(O)nc2ccccc2c1O
inactive
